Measured IC50, listed per entry.
# subjectOfTest: UniProt:O39930
# protocol: Inhibitory activity against NS5B polymerase of hepatitis C virus

CCc1ccc(-c2nc3cc(C(=O)O)ccc3n2C2CCCCC2)s1 : > 30 µM
O=C(O)c1ccc2c(c1)nc(-c1ccc(-c3ccc(Cl)cc3)o1)n2C1CCCCC1 : > 30 µM

Next up:
// query IC50 value for entry O=C(O)c1ccc2c(c1)nc(-c1ccc3ccccc3n1)n2C1CCCCC1
> 30 µM

----------
Measured IC50, listed per entry for reference.
# subjectOfTest: RNA-directed RNA polymerase (Hepacivirus hominis, UniProt O39930)
# Sequence (O39930 whole entry): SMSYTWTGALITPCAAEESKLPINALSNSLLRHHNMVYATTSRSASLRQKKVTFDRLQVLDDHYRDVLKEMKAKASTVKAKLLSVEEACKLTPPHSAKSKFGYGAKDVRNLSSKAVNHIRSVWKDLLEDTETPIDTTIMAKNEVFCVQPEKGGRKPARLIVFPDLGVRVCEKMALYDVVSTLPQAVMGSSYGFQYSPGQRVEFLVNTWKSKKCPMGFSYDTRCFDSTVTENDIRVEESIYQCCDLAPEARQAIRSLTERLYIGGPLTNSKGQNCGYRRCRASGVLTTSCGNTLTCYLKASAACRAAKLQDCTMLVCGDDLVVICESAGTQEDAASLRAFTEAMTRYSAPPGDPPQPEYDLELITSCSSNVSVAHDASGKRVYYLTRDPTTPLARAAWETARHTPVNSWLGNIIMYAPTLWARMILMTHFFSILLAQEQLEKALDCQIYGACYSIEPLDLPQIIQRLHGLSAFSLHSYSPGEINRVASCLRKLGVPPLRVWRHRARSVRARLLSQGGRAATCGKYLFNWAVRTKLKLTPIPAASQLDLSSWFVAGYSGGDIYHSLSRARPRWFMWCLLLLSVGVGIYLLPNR

Data request, read-out IC50, for Cc1ccc(-c2nc3cc(C(=O)O)ccc3n2C2CCCCC2)s1
> 30 µM

IC50 for COc1ccc(CNC(=O)c2ccc3c(c2)nc(-c2ccccn2)n3C2CCCCC2)cc1OC ?
7.1 µM

Name the recorded IC50 for O=C(O)c1ccc2c(c1)nc(-c1ccoc1)n2C1CCCCC1 .
1.6 µM

If you can, please state the reported IC50 value of O=C(O)c1ccc2c(c1)nc(-c1ccc(Br)o1)n2C1CCCCC1 .
> 30 µM

Look up IC50 for this molecule: O=C(O)c1ccc2c(c1)nc(-c1ccsc1)n2C1CCCCC1
6.33 µM

Which measured IC50 value corresponds to Cn1cccc1-c1nc2cc(C(=O)O)ccc2n1C1CCCCC1 ?
1.8 µM

Param item = O=C(O)c1ccc2c(c1)nc(-c1ccc(C(=O)O)o1)n2C1CCCCC1 ; retrieve measured IC50.
> 30 µM

What does the data say about its IC50? Entry: O=C(O)c1ccc2c(c1)nc(-c1ccc(C(=O)O)s1)n2C1CCCCC1
> 30 µM

Would you kindly share the measured IC50 for CCc1ccc(-c2nc3cc(C(=O)O)ccc3n2C2CCCCC2)o1 ?
> 30 µM

Which value of IC50 has been reported for O=C(O)c1ccc2c(c1)nc(-c1ncc[nH]1)n2C1CCCCC1 in the records?
10 µM

Query (molecule): O=C(O)c1ccc2c(c1)nc(-c1ccc(CO)o1)n2C1CCCCC1 ; field requested: IC50
> 30 µM

I have this molecule here, O=C(O)c1ccc2[nH]c(-c3ccccn3)nc2c1 , and I need its recorded IC50.
> 500 µM

Using the record for CCC(CC)n1c(-c2ccccn2)nc2cc(C(=O)O)ccc21 , report its IC50.
139 µM

Could you share which IC50 value was measured for O=C(O)c1ccc2c(c1)nc(-c1c[nH]nc1-c1ccccc1)n2C1CCCCC1 ?
> 30 µM

What does the record list as IC50 for NC(=O)c1ccc2c(c1)nc(-c1ccccn1)n2C1CCCCC1 ?
27 µM

IC50 lookup needed for O=C(O)c1ccc2c(c1)nc(-c1ccncc1)n2C1CCCCC1 , thanks.
17 µM
